So I've got MIC readings for Staphylococcus aureus, take a look.
Return type: number; implicit unit µM.

// query Would you kindly share the measured MIC for CC[C@H](C)[C@H](NC(=O)[C@H](C)NC(=O)CNC(=O)[C@H](CCCCN)NC(=O)[C@@H](NC(=O)[C@H](CCCCN)NC(=O)[C@@H](NC(=O)[C@H](C)NC(=O)CNC(=O)[C@H](CCCCN)NC(=O)[C@H](Cc1c[nH]c2ccccc12)NC(=O)[C@H](CCCCN)NC(=O)[C@@H](NC(=O)[C@H](C)NC(=O)CNC(=O)[C@H](CCCCN)NC(=O)[C@@H](NC(=O)[C@@H](N)CCCCN)[C@@H](C)CC)[C@@H](C)CC)[C@@H](C)CC)[C@@H](C)CC)C(N)=O [KIKGAIKWKGAIKIKGAI] ?
// result 8.32

// query Would you kindly share the measured MIC for CC[C@H](C)[C@H](NC(=O)CN)C(=O)N[C@@H](Cc1c[nH]c2ccccc12)C(=O)N[C@@H](CCCCN)C(=O)N[C@@H](CO)C(=O)N[C@@H](CC(C)C)C(=O)N[C@@H](Cc1ccccc1)C(=O)N[C@H](C(=O)N[C@@H](CCCCN)C(=O)N[C@@H](CC(C)C)C(=O)N[C@@H](CC(C)C)C(=O)N[C@@H](CCCCN)C(=O)NCC(N)=O)[C@@H](C)O [GIWKSLFTKLLKG] ?
// result 6.71

* * *

Would you mind telling me the reported MIC of each entry?
Return type: number; implicit unit µM.

// query Please tell me: MIC of CC[C@H](C)[C@H](NC(=O)[C@H](CC(C)C)NC(=O)[C@H](Cc1cnc[nH]1)NC(=O)CNC(=O)[C@H](CC(C)C)NC(=O)[C@@H](NC(=O)[C@H](CCCCN)NC(=O)[C@H](CO)NC(=O)[C@H](Cc1c[nH]c2ccccc12)NC(=O)[C@H](CCSC)NC(=O)[C@@H](N)CCCCN)[C@@H](C)CC)C(=O)N[C@@H](CCCN=C(N)N)C(N)=O , system Staphylococcus aureus?
// result 41.7

// query Please tell me: MIC of CC[C@H](C)[C@H](NC(=O)[C@@H]1CCCN1C(=O)[C@H](CCSC)NC(=O)[C@@H](N)Cc1ccccc1)C(=O)N[C@@H](CC(C)C)C(=O)N[C@@H](CO)C(=O)N[C@H]1CSSC[C@@H](C(=O)O)NC(=O)[C@H](CCCN=C(N)N)NC(=O)[C@H](CCCCN)NC(=O)[C@H](Cc2ccccc2)NC(=O)[C@H](CCCN=C(N)N)NC(=O)[C@H](CO)NC1=O , system Staphylococcus aureus?
// result 5.9

// query Please tell me: MIC of CC[C@H](C)[C@H](NC(=O)CN)C(=O)N[C@@H](CCSC)C(=O)N[C@@H](CO)C(=O)N[C@@H](CO)C(=O)N[C@@H](CC(C)C)C(=O)N[C@@H](CCSC)C(=O)N[C@@H](CCCCN)C(=O)N[C@@H](CCCCN)C(=O)N[C@@H](CC(C)C)C(=O)N[C@@H](C)C(=O)N[C@@H](C)C(=O)N[C@@H](Cc1cnc[nH]1)C(=O)N[C@H](C(=O)N[C@@H](CCCCN)C(=O)N[C@@H](CCCCN)C(N)=O)[C@@H](C)CC , system Staphylococcus aureus?
// result 90

// query Please tell me: MIC of CC(C)C[C@H](NC(=O)[C@H](CCCN=C(N)N)NC(=O)[C@H](C)NC(=O)[C@H](CCCN=C(N)N)NC(=O)[C@H](CC(C)C)NC(=O)[C@H](CO)NC(=O)[C@H](CCC(=O)O)NC(=O)CNC(=O)[C@H](CCCCN)NC(=O)[C@H](CC(C)C)NC(=O)[C@H](CCCN=C(N)N)NC(=O)[C@H](CO)NC(=O)[C@@H](NC(=O)[C@H](CCCCN)NC(=O)[C@@H](NC(=O)[C@@H](NC(=O)CN)C(C)C)C(C)C)C(C)C)C(=O)O , system Staphylococcus aureus?
// result 10.7
